Data provenance is ChEMBL document CHEMBL6182948.

Target: UniProt:P04798
Sequence (P04798 whole entry): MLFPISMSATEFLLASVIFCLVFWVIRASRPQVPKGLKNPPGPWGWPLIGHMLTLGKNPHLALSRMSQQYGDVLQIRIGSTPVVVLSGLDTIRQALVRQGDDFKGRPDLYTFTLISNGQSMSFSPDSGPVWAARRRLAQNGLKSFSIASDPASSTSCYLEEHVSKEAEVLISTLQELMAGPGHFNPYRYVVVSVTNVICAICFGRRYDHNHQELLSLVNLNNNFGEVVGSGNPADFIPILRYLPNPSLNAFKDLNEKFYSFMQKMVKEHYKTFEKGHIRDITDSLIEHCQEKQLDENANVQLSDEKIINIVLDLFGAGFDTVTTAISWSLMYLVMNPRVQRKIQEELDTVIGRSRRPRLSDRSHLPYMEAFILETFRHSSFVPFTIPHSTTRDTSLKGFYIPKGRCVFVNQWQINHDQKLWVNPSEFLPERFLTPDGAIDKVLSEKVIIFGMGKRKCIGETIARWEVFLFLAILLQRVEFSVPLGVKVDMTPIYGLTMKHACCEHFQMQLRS
Experiment: Inhibition of human recombinant CYP1A1 using 7-ethoxyresorufin as substrate incubated under dark condition for 15 mins in presence of NADPH by EROD fluorescence assay
# IC50 listing for each entry below

{"columns": ["given-smiles", "IC50"],
 "data": [
  ["CCc1sc(C(=O)Nc2cc(Cl)cc(Cl)c2)nc1-c1ccc(F)cc1", "226 nM"],
  ["O=C(Nc1cc(Cl)cc(Cl)c1)c1nc(-c2ccccc2F)cs1", "129 nM"],
  ["N#Cc1ccc(-c2csc(C(=O)Nc3ccc(OC(F)F)cc3)n2)cc1", "113 nM"],
  ["O=C(Nc1ccc(C(F)(F)F)cc1)c1nc(-c2ccc(Cl)cc2)cs1", "69.2 nM"],
  ["COc1cc(Cl)cc(NC(=O)c2nc(-c3ccccc3)cs2)c1", "230 nM"],
  ["Cc1sc(C(=O)Nc2cc(Cl)cc(Cl)c2)nc1-c1cccc(F)c1", "122 nM"],
  ["O=C(Nc1ccc(C(F)(F)F)cc1)c1nc(-c2cccc(F)c2)cs1", "123 nM"],
  ["O=C(Nc1ccc(OC(F)(F)F)cc1)c1nc(-c2ccccc2)cs1", "213 nM"],
  ["N#Cc1ccc(-c2csc(C(=O)Nc3ccc(C(F)(F)F)cc3)n2)cc1", "77.3 nM"],
  ["O=C(Nc1ccc(Cl)cc1)c1nc(-c2ccccc2)cs1", "213 nM"],
  ["N#Cc1ccc(NC(=O)c2nc(-c3ccccc3)cs2)cc1", "870 nM"],
  ["O=C(Nc1ccc(F)cc1)c1nc(-c2ccccc2)cs1", "280 nM"],
  ["COc1cc(NC(=O)c2nc(-c3ccc(F)cc3)cs2)cc(OC)c1", "414 nM"],
  ["O=C(Nc1cc(Cl)cc(Cl)c1)c1nc(-c2ccnc(Cl)c2)cs1", "68.3 nM"],
  ["O=C(Nc1cc(Cl)cc(Cl)c1)c1nc(-c2cccc(F)c2)cs1", "264 nM"],
  ["O=C(Nc1cc(Cl)cc(Cl)c1)c1nc(-c2ccccc2Cl)cs1", "203 nM"],
  ["Cc1sc(C(=O)Nc2ccc(C(F)(F)F)cc2)nc1-c1cccc(Cl)c1", "135 nM"],
  ["CC(C)c1ccc(-c2csc(C(=O)Nc3cc(Cl)cc(Cl)c3)n2)cc1", "456 nM"],
  ["O=C(Nc1cc(Cl)cc(Cl)c1)c1nc(-c2ccc(-c3ccccc3)cc2)cs1", "9310 nM"],
  ["O=C(Nc1cc(Cl)cc(Cl)c1)c1nc(-c2cncc(Cl)c2)cs1", "11.5 nM"],
  ["O=C(Nc1ccc(F)cc1F)c1nc(-c2ccc(F)cc2)cs1", "404 nM"],
  ["O=C(Nc1ccccc1)c1nc(-c2ccccc2)cs1", "597 nM"],
  ["COc1cc(NC(=O)c2nc(-c3ccccc3)cs2)cc(OC)c1", "621 nM"]
]}

---

Test: Stability in human plasma assessed as compound remaining at 100 uM measured after 60 mins by LC-MS/MS analysis
Type: ADME, cell-free
Conditions: read-out: Stability
# remaining at 1 h, 100 µM listing for each entry below
assay-readout: remaining at 1 h, 100 µM (%)

{"columns": ["molecule", "assay-readout", "value"],
 "data": [
  ["O=C(Nc1cc(Cl)cc(Cl)c1)c1nc(-c2cccc(Cl)c2)cs1", "remaining at 1 h, 100 µM", 96.1],
  ["CC(C)[N+](C)(CCOC(=O)C1c2ccccc2Oc2ccccc21)C(C)C [PROPANTHELINE BROMIDE]", "remaining at 1 h, 100 µM", 11.6],
  ["N#Cc1ccc(-c2csc(C(=O)Nc3cc(Cl)cc(Cl)c3)n2)cc1", "remaining at 1 h, 100 µM", 114],
  ["N#Cc1ccc(-c2csc(C(=O)Nc3ccc(C(F)(F)F)cc3)n2)cc1", "remaining at 1 h, 100 µM", 100]
]}

---

# pIC50 listing for each entry below
Target: Cytochrome P450 1B1 (Homo sapiens)
Sequence (Q16678 whole entry): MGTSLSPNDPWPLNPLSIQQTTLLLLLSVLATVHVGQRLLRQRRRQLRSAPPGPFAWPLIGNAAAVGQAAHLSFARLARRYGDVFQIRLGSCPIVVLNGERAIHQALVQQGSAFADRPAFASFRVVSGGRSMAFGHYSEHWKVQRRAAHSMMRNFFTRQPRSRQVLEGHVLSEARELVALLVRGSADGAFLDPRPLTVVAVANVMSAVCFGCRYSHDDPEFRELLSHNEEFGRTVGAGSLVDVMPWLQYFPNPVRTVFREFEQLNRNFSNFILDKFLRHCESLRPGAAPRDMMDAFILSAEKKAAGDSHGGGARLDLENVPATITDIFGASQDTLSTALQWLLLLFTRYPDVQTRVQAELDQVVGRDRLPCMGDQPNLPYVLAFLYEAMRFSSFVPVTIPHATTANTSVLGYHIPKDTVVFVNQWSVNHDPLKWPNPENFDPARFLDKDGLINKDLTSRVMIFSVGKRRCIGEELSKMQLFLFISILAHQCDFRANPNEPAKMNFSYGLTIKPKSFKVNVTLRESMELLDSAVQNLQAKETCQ
Experiment: Inhibition of human recombinant CYP1B1 using 7-ethoxyresorufin as substrate incubated under dark condition for 30 mins in presence of NADPH by EROD fluorescence assay
Format: ADME
pIC50: −log10 of the molar value.
assay-readout: pIC50

{"columns": ["given-smiles", "system-under-test", "value"],
 "data": [
  ["O=C(Nc1cc(Cl)cc(Cl)c1)c1nc(-c2ccc(-c3ccccc3)cc2)cs1", "Cytochrome P450 1B1 (Homo sapiens)", 5.71],
  ["Cc1cccc(-c2csc(C(=O)Nc3cc(Cl)cc(Cl)c3)n2)c1", "Cytochrome P450 1B1 (Homo sapiens)", 7.36],
  ["O=C(Nc1ccc(C(F)F)cc1)c1nc(-c2ccccc2)cs1", "Cytochrome P450 1B1 (Homo sapiens)", 8.62],
  ["CC(=O)Nc1ccc(-c2csc(C(=O)Nc3cc(Cl)cc(Cl)c3)n2)cc1", "Cytochrome P450 1B1 (Homo sapiens)", 6.62],
  ["NC(=O)c1cccc(-c2csc(C(=O)Nc3ccc(C(F)(F)F)cc3)n2)c1", "Cytochrome P450 1B1 (Homo sapiens)", 8.66]
]}

---

Molecular target: CYP2D6 (Homo sapiens)
Sequence (P10635 whole entry): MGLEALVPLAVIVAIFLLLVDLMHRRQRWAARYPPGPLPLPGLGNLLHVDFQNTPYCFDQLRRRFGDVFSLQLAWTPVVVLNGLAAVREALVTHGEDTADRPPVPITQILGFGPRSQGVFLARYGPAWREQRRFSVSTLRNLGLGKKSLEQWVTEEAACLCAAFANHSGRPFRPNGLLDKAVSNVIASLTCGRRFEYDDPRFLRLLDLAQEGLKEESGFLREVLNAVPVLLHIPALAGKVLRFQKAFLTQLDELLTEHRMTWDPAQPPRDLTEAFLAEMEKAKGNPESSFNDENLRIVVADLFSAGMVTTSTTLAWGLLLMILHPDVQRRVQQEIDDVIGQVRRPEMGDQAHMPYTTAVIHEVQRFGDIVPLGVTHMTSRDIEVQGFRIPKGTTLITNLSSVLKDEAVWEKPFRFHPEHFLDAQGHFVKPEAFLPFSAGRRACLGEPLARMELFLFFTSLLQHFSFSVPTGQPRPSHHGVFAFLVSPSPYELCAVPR
Assay: Inhibition of CYP2D6 in human liver microsome at 10 uM pre-incubated with compound for 5 mins followed NADPH addition and measured after 10 mins by LC-MS/MS analysis relative to control
Type: ADME
Conditions: liver microsomes, time 15 min

{"columns": ["given-smiles", "inhibition at 10 min, 10 µM"],
 "data": [
  ["N#Cc1ccc(-c2csc(C(=O)Nc3ccc(C(F)(F)F)cc3)n2)cc1", "23.1%"],
  ["N#Cc1ccc(-c2csc(C(=O)Nc3cc(Cl)cc(Cl)c3)n2)cc1", "0%"],
  ["O=C(Nc1cc(Cl)cc(Cl)c1)c1nc(-c2cccc(Cl)c2)cs1", "0%"]
]}

---

Species: Homo sapiens
Assay: Selectivity index, ratio of IC50 for human recombinant CYP1A2 to IC50 for human recombinant CYP1B1 using 7-ethoxyresorufin as substrate
assay-readout: Ratio IC50

{"columns": ["given-smiles", "sign-qualifier", "value"],
 "data": [
  ["O=C(Nc1cc(Cl)cc(Cl)c1)c1nc(-c2ccc(F)cc2)cs1", "=", 2990],
  ["O=C(Nc1cc(Cl)cc(Cl)c1)c1nc(-c2cccc(Cl)c2)cs1", ">", 54000],
  ["N#Cc1ccc(-c2csc(C(=O)Nc3ccc(C(F)(F)F)cc3)n2)cc1", ">", 200000],
  ["O=C(Nc1ccc(Cl)cc1)c1nc(-c2ccccc2)cs1", "=", 327],
  ["O=C(Nc1ccc(OC(F)(F)F)cc1)c1nc(-c2ccccc2)cs1", "=", 63.4],
  ["O=C(Nc1ccc(Cl)cc1Cl)c1nc(-c2ccccc2)cs1", "=", 137],
  ["COc1cc(NC(=O)c2nc(-c3ccccc3)cs2)cc(OC)c1", "=", 156],
  ["Cc1sc(C(=O)Nc2cc(Cl)cc(Cl)c2)nc1-c1ccc(F)cc1", "=", 2920],
  ["O=C(Nc1ccc(C(F)F)cc1)c1nc(-c2ccccc2)cs1", "=", 447],
  ["O=C(Nc1ccc(OC(F)F)cc1)c1nc(-c2ccccc2)cs1", "=", 2610],
  ["O=C(Nc1cc(Cl)cc(Cl)c1)c1nc(-c2cncc(Cl)c2)cs1", "=", 5.5]
]}

---

# pIC50 listing for each entry below
Biological target: Cytochrome P450 1A2 (Homo sapiens, UniProt P05177)
Sequence (P05177 whole entry): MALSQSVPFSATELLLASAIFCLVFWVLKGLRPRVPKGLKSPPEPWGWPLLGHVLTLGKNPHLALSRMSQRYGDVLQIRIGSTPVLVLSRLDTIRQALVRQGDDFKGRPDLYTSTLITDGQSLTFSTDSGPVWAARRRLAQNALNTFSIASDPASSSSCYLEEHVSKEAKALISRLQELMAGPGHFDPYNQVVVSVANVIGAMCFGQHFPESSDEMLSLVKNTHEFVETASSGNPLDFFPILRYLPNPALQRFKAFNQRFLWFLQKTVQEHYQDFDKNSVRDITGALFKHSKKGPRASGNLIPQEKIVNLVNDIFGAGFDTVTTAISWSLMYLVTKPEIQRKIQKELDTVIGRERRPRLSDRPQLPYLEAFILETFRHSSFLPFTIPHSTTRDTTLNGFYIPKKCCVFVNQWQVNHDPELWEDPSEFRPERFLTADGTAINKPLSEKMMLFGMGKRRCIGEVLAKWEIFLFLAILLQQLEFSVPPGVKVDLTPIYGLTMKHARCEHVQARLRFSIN
Test: Inhibition of human recombinant CYP1A2 using 7-ethoxyresorufin as substrate incubated under dark condition for 45 mins in presence of NADPH by EROD fluorescence assay
pIC50: −log10 of the molar value.

{"columns": ["given-smiles", "sign-qualifier", "pIC50"],
 "data": [
  ["O=C(Nc1cc(Cl)cc(Cl)c1)c1nc(-c2cccc(F)c2)cs1", "=", 5.33],
  ["O=C(Nc1ccc(OC(F)F)cc1)c1nc(-c2ccc(F)cc2)cs1", "=", 6.09],
  ["O=C(Nc1ccc(OC(F)F)cc1)c1nc(-c2ccc(Cl)cc2)cs1", "=", 6.48],
  ["O=C(Nc1ccc(OC(F)F)cc1)c1nc(-c2cccc(F)c2)cs1", "=", 6.16],
  ["COc1ccc(NC(=O)c2nc(-c3ccccc3)cs2)c(OC)c1", "=", 6.36],
  ["O=C(Nc1cc(Cl)cc(Cl)c1)c1nc(-c2ccc(I)cc2)cs1", "=", 5.80],
  ["O=C(Nc1ccc(OC(F)F)cc1)c1nc(-c2cccc(Cl)c2)cs1", "=", 5.33],
  ["O=C(Nc1cc(Cl)ccc1Cl)c1nc(-c2ccccc2)cs1", "=", 7.09],
  ["COc1cc(/C=C/c2ccc(OC)cc2OC)cc(OC)c1", "=", 5.71],
  ["Cc1sc(C(=O)Nc2ccc(C(F)(F)F)cc2)nc1-c1cccc(Cl)c1", "<", 5.00],
  ["CC(C)c1ccc(-c2csc(C(=O)Nc3cc(Cl)cc(Cl)c3)n2)cc1", "=", 5.02],
  ["O=C(Nc1ccc(OC(F)F)cc1)c1nc(-c2ccccc2)cs1", "=", 6.17],
  ["O=C(Nc1ccc(F)cc1)c1nc(-c2ccccc2)cs1", "=", 6.65],
  ["NC(=O)c1ccc(-c2csc(C(=O)Nc3ccc(C(F)(F)F)cc3)n2)cc1", "<", 5.00],
  ["COc1cc(NC(=O)c2nc(-c3cccc(F)c3)cs2)cc(OC)c1", "=", 5.14],
  ["O=C(Nc1ccc(C(F)F)cc1)c1nc(-c2ccccc2)cs1", "=", 5.97],
  ["O=C(Nc1ccc(F)cc1F)c1nc(-c2ccc(F)cc2)cs1", "=", 6.67],
  ["O=C(Nc1ccc(Cl)cc1)c1nc(-c2ccccc2)cs1", "=", 6.41],
  ["O=C(Nc1ccc(I)cc1)c1nc(-c2cccc(F)c2)cs1", "=", 6.49],
  ["O=C(Nc1ccc(C(F)(F)F)cc1)c1nc(-c2cccc(F)c2)cs1", "=", 6.37],
  ["Cc1ccccc1-c1csc(C(=O)Nc2cc(Cl)cc(Cl)c2)n1", "=", 6.22],
  ["COc1ccc(-c2csc(C(=O)Nc3cc(Cl)cc(Cl)c3)n2)cc1", "=", 4.77],
  ["O=C(Nc1ccc(OC(F)(F)F)cc1)c1nc(-c2ccccc2)cs1", "=", 6.33],
  ["CC(=O)Nc1ccc(-c2csc(C(=O)Nc3cc(Cl)cc(Cl)c3)n2)cc1", "<", 4.00]
]}
